Parameter residual activity: see the listing below.
target: UniProt:Q05655; test: radiometric filter-binding kinase assay, Kinase HotSpot; details: compound 0.5 µM; ATP 10 µM
Sequence (Q05655 whole entry, looked up): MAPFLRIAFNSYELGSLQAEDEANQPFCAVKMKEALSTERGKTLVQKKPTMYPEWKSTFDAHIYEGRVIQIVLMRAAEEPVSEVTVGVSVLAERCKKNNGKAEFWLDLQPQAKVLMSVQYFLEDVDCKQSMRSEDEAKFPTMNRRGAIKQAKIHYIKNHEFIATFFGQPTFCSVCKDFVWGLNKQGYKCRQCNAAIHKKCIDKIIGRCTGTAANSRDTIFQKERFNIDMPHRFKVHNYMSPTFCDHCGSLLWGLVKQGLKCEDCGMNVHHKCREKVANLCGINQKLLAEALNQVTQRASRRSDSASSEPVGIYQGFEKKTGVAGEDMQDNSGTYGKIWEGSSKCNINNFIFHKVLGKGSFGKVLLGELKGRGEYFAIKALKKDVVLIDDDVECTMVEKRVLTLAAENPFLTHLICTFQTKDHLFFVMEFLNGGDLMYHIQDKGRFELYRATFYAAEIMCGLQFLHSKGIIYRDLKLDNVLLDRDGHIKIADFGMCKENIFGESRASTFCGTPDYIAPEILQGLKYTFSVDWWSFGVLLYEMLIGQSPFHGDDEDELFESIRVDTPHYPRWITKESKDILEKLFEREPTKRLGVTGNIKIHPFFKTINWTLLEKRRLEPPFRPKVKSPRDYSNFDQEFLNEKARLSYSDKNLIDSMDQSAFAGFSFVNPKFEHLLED

{"Line notation": "Cn1cc(/C=C2\\C(=O)Nc3ccc(S(N)(=O)=O)cc32)c2ccccc21", "Tgt": "UniProt:Q05655", "residual activity": "91.3%"}
{"Line notation": "Cc1cc(Nc2nc(-c3ccccc3)nc3ccccc23)n[nH]1", "Tgt": "UniProt:Q05655", "residual activity": "91.3%"}
{"Line notation": "N#Cc1c(NC(=O)c2cccc3ccccc23)sc2c1CCCC2", "Tgt": "UniProt:Q05655", "residual activity": "94.1%"}
{"Line notation": "O=S(=O)(NCCNC/C=C/c1ccc(Br)cc1)c1cccc2cnccc12", "Tgt": "UniProt:Q05655", "residual activity": "38.1%"}
{"Line notation": "O=c1c2ccccc2[nH]c(=S)n1CCN1CCC(=C(c2ccc(F)cc2)c2ccc(F)cc2)CC1", "Tgt": "UniProt:Q05655", "residual activity": "95.7%"}
